Exercise: state measured cell viability for each of the molecules provided.
- Tested on: NOMO1
- Experiment: cell viability relative to DMSO control; higher = less cytotoxic
- Recorded Conditions: RPMI 5 mM glucose + 10% FBS; 48 h; 0.0211 µM
Use % as the unit, but write only the number.

Field: cell viability (NOMO1). Entry: Cc1ncc([N+](=O)[O-])n1CC(C)O (stereo not drawn)
106

Field: cell viability (NOMO1). Entry: C[C@@H](O)[C@@H]1NC(=O)[C@H](CCCCN)NC(=O)[C@@H](Cc2c[nH]c3ccccc23)NC(=O)[C@H](Cc2ccccc2)NC(=O)[C@@H](NC(=O)[C@H](N)Cc2ccccc2)CSSC[C@@H](C(=O)N[C@H](CO)[C@@H](C)O)NC1=O
79.3

Field: cell viability (NOMO1). Entry: CCN1CCN(C(=O)Cc2ccc(Nc3ncc(F)c(Nc4ccc(C(=O)Nc5ccccc5Cl)cc4)n3)cc2)CC1
92.7

Field: cell viability (NOMO1). Entry: CNC(=O)C1=CC=C(C)C(=C1)N2C(=C/C(=C(/Br)C2=O)OCC3=C(F)C=C(F)C=C3)\C
127

Field: cell viability (NOMO1). Entry: CC(O)C1C2C(C)\C(=C(/N2C1=O)C(O)=O)SC3CNC(C3)C(=O)N(C)C (stereo not drawn)
89.1

Field: cell viability (NOMO1). Entry: O=C(/C=C/c1ccc(O)cc1)c1ccc(O)cc1O
109

Field: cell viability (NOMO1). Entry: Cc1cccc(/C=N/Nc2cc(N3CCOCC3)nc(OCCc3ccccn3)n2)c1
99.5

Field: cell viability (NOMO1). Entry: O=C(Nc1cccnn1)N1CCC(=Cc2cccc(Oc3ccc(C(F)(F)F)cn3)c2)CC1
21.7

###

- Test system: P12-Ichikawa
- Experiment: cell viability relative to DMSO control; higher = less cytotoxic
- Recorded Conditions: HPLM + 10% dialyzed FBS; 48 h; 15.4 µM
Exercise: state measured cell viability for each of the molecules provided.
Use % as the unit, but write only the number.

Field: cell viability (P12-Ichikawa). Entry: CC(NCCc1ccc(O)cc1)C(O)c1ccc(O)cc1 (stereo not given)
106

Field: cell viability (P12-Ichikawa). Entry: CC/1=C(\O)C(=O)\C=C2/C1=C/C=C3\[C@@]2(C)CC[C@@]4(C)[C@@H]5C[C@@](C)(CC[C@]5(C)CC[C@]34C)C(O)=O
5.75

Field: cell viability (P12-Ichikawa). Entry: C1CCN2C[C@H]3C[C@H](\C=C/4CCCN[C@@H]34)[C@H]2C1
108

Field: cell viability (P12-Ichikawa). Entry: OCCn1cc(-c2cnc3nnn(Cc4ccc5ncccc5c4)c3n2)cn1
98.9

Field: cell viability (P12-Ichikawa). Entry: N=C1N[C@H]2[C@H](CS[C@H]2CCCCC(=O)O)N1
119

Field: cell viability (P12-Ichikawa). Entry: Nc1nc(Cl)nc2c1ncn2[C@@H]1O[C@H](CO)[C@@H](O)[C@@H]1F
10.6

Field: cell viability (P12-Ichikawa). Entry: Cn1cc(C[C@@H](N)C(=O)O)c2ccccc21
98.2

Field: cell viability (P12-Ichikawa). Entry: Nc1ncnc2c1nc(Cl)n2[C@@H]1O[C@H](CO)[C@@H](O)[C@H]1O
103

Field: cell viability (P12-Ichikawa). Entry: CCN(c1ccccc1)c1cc(NC)[n+](C)c(C)n1
102

Field: cell viability (P12-Ichikawa). Entry: CC(C)(O)/C=C\C(=O)[C@](C)(O)[C@H]1[C@H](O)C[C@]2(C)[C@@H]3CC=C4[C@@H](C=C(O)C(=O)C4(C)C)[C@]3(C)C(=O)C[C@@]12C
12.9
